Tested on: Candida albicans ATCC 9002
PROCEDURE_TEXT: Broth microdilution MIC/MFC against Candida albicans ATCC 9002
Type: cell-based
CONDITIONS: ATCC9002, 37°C, 48 h, read-out: MIC
PROPERTY_NAME: MIC (µg/mL)

P. O=c1c(O[C@@H]2O[C@H](CO)[C@H](O)[C@H](O)[C@H]2O)c(-c2ccc(O)c(O)c2)oc2cc(O)cc(O)c12 [Compound 4, quercetin 3-O-β-D-galactopyranoside]
Q. O=c1c(O)c(-c2ccc(O)c(O)c2)oc2cc(O)cc(O)c12 [Compound 2, quercetin]
Hey, between P and Q which has a smaller measured MIC? Bench note: the answer is the label of the chosen record. Q
(Q: 128 µg/mL, P: 256 µg/mL)

Measured values drawn from paper PMC4424558 for this set.
